Molecular target: T1, recombinant human CD3 epsilon/gamma heterodimer (human, UniProt P07766 23-126; P09693 23-116)
T1 construct: Recombinant heterodimer used as analyte in Octet; also called hCD3 E/G
T1 sequence (P07766 23-126, chain 1 of 2): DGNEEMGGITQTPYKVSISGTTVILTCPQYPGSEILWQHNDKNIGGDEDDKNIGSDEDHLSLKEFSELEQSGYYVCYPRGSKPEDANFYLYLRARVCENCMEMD
T1 sequence (P09693 23-116, chain 2 of 2): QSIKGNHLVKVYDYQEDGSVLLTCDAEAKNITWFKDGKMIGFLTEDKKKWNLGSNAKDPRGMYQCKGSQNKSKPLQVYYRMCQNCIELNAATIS
Assay: BLI (Octet), mAb 5 ug/mL on FAB2G sensor, hCD3 E/G 200-50 nM;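 also: antibodies purified from hybridoma supernatants, measured by Octet binding to recombinant human CD3 protein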
measure: Response
// response body must contain only the number

The binder listed as ABL-CD3-66 (antibody, V domains shown, mAb purified from hybridoma; chimeric AlivaMab IgG (human VH, CH1 and upper hinge; mouse middle hinge, CH2, CH3; human light chain)) VH: QVQLQESGPGLVKPSETLSLTCTVSGGSISSYYWSWIRQPAGKGLEWIGRIYASGSTYYNPSLKSRVTMSVDTSKNQFSLKLSSVTAADTAVYYCAREKRSRLYFDYWGQGTLVTVSS VL: NFMLTQPHSVSESPGKTVTISCTRSSGSIASNYVQWYQQRPGSSPTTVIYEDNQRPSGVPDRFSGSIDSSSNSASLTISGLKTEDEGDYYCQSYDRSNRVFGGGTKLTVL has a reported Response of 0.09

The binder listed as ABL-CD3-74 (antibody, V domains shown, mAb purified from hybridoma; chimeric AlivaMab IgG (human VH, CH1 and upper hinge; mouse middle hinge, CH2, CH3; human light chain)) VH: EVQLVESGGGLVKPGGSLRLSCAASGFTFSSYSMKWVRQAPGKGLEWVSSISSSSSYIYYADSVKGRFTISRDNAKNSLYLQMNSLRAEDTAVYYCARDRGELTLWYWGQGTLVTVSS VL: SYELTQPPSVSVSPGQTARITCSGDALPKKYAYWYQQKSGQAPVLVIYEDSKRPSGIPERFSGSSSGTMATLTISGAQVEDEADYYCYSTDSSGNHWVFGGGTKLTVL has a reported Response of 0.13

The binder listed as ABL-CD3-85 (antibody, V domains shown, mAb purified from hybridoma; chimeric AlivaMab IgG (human VH, CH1 and upper hinge; mouse middle hinge, CH2, CH3; human light chain)) VH: EVQLVESGGGLVKPGGSLRLSCAASGFTFSSYSMNWVRQAPGKGLEWVSSISRRSGYIYYADSVKGRFTLSRDNAKKSLYLQMNSLRAEDTAVYYCARDLNWAFDYWGQGTLVTVSS VL: NFMLTQPHSVSESPGKTVTISCTRSSGSIASNYVQWYQQRPGSSPTTVIYEDNHRPSGVPDRFSGSIDSSSNSASLTIAGLKTEDEADYYCQSCDSSNVVFGGGTKLTVL has a reported Response of 0.64

The binder listed as ABL-CD3-87 (antibody, V domains shown, mAb purified from hybridoma; chimeric AlivaMab IgG (human VH, CH1 and upper hinge; mouse middle hinge, CH2, CH3; human light chain)) VH: EVQLVESGGGLVKFGGSLRLSCAASGFTFSRYSMNWVRQAPGKGLEWVSSISSSSSYKYYADSVKGRFTISRDNAKNSLYLQMNSLRAEDTAVYYCAREGGNSHGMDVWGQGTTVTVSS VL: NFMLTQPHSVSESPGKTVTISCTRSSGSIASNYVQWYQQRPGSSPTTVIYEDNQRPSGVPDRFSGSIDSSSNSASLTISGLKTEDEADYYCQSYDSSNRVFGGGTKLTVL has a reported Response of 0.36

Now for the binder whose Response we want.
The binder listed as ABL-CD3-80 (antibody, V domains shown, mAb purified from hybridoma; chimeric AlivaMab IgG (human VH, CH1 and upper hinge; mouse middle hinge, CH2, CH3; human light chain)) VH: EVQLVESGGGLVKPGGSLRLSCAASGFTFSGYSMNWVRQAPGKGLEWVSSISSRSRYIYYADSVQGRFTISRDNSKNSLFLQMNSLRAEDTAVYYCGRDWRELLLDYWGQGTLVTVSS VL: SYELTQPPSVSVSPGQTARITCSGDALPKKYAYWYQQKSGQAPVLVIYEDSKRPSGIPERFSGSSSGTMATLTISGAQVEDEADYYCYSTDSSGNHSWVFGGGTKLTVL has a reported Response of 0.11
